# experiment summary: Quantum yield measurements
# Type: biochemical
# test settings: coelenterazine-cp
property measured: Quantum Yield (%) cp

C124A/K136R: RLuc mutant C124A/K136R (protein) MASKVYDPEQRKRMITGPQWWARCKQMNVLDSFINYYDSEKHAENAVIFLHGNAASSYLWRHVVPHIEPVARCIIPDLIGMGKSGKSGNGSYRLLDHYKYLTAWFELLNLPKKIIFVGHDWGAALAFHYSYEHQDRIKAIVHAESVVDVIESWDEWPDIEEDIALIKSEEGEKMVLENNFFVETMLPSKIMRKLEPEEFAAYLEPFKEKGEVRRPTLSWPREIPLVKGGKPDVVQIVRNYNAYLRASDDLPKMFIESDPGFFSNAIVEGAKKFPNTEFVKVKGLHFSQEDAPDEMGKYIKSFVERVLKNEQ = 5.1
A55T/C124A: RLuc mutant A55T/C124A (protein) MASKVYDPEQRKRMITGPQWWARCKQMNVLDSFINYYDSEKHAENAVIFLHGNATSSYLWRHVVPHIEPVARCIIPDLIGMGKSGKSGNGSYRLLDHYKYLTAWFELLNLPKKIIFVGHDWGAALAFHYSYEHQDKIKAIVHAESVVDVIESWDEWPDIEEDIALIKSEEGEKMVLENNFFVETMLPSKIMRKLEPEEFAAYLEPFKEKGEVRRPTLSWPREIPLVKGGKPDVVQIVRNYNAYLRASDDLPKMFIESDPGFFSNAIVEGAKKFPNTEFVKVKGLHFSQEDAPDEMGKYIKSFVERVLKNEQ = 4.5
